- Test: chemical genetic growth profiling, strain panel (AID 1159580);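 also: tested at 20 µM; growth read once vehicle control cultures reached saturation at 30 °C; 1 = growth at the plate median or of vehicle wells; lower values mean less growth of the strain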
- Settings: S. cerevisiae deletion strains, growth OD, locus YLR262C, strain YPT6, active compounds read low
The campaign covered roughly 5,500 compounds. About 2,000 (36%) were called active. Not shown: some 18% with an inconclusive outcome. The list shows a part of the results.
Consider the following compounds; for each one, report its normalized growth.
Numbers only.

Examples with their reported normalized growth follow.
O=S(=O)(O)CCS	1.05
NCCC(O)C(=O)NC1CC(N)C(OC2OC(CN)C(O)C(O)C2N)C(OC2OC(CO)C(O)C2O)C1O (centres undefined)	0.985
C[C@H]1COc2c(N3CCN(C)CC3)c(F)cc3c(=O)c(C(=O)O)cn1c23	1.01
O=C(CSc1ccc(Cl)cc1)Nc1ccc(F)cc1	0.826
CCN1CCCC(OC(=O)C(c2ccccc2)c2ccccc2)C1 (centres undefined)	1.08
CN(C)CCN(Cc1ccccc1)c1ccccn1	1.01
O=C1NCC2(CCN(CCc3ccccc3)CC2)O1	0.968
CC1CCc2cc(F)cc3c(=O)c(C(=O)O)cn1c23 (centres undefined)	0.867

Give me normalized growth for each of these compounds, listed below.
1. C=C[C@@](C)(O)CCC1C(=C)C[C@H](O)C2C(C)(C)CCCC12C (some centres undefined)
2. COC(=O)CCCCCCCC(=O)Nc1ccc(Cl)cc1
3. Clc1ccc(C(OCCN2CCCCC2)c2ccccc2)cc1 (centres undefined)
4. Cc1ccccc1C(OCCN(C)C)c1ccccc1 (centres undefined)
5. CCCCCCCCCCC[C@@H](C[C@H]1OC(=O)[C@H]1CCCCCC)OC(=O)[C@@H](CC(C)C)NC=O

-- reply
0.943
1.02
1.27
1.13
1.07

# batch: return normalized growth for each of the 4 compounds below
1. COc1c(N2CCNC(C)C2)c(F)cc2c(=O)c(C(=O)O)cn(C3CC3)c12 (centres undefined)
2. c1ccc2c(c1)CCCC2C1=NCCN1 (centres undefined)
3. CC1(C)CCC[C@@]2(C)C1[C@@H](O)C[C@]1(C)C2CC[C@@H]2[C@@]3(C)CC[C@H](C(C)(C)O)[C@@H]3CC[C@@]21C (some centres undefined)
4. CCN(CC)C(=O)N1CCN(C)CC1

-- reply
0.846
1.04
1.04
0.976

// each listed compound needs a value for normalized growth
1. CN(C)CCOC(c1ccc(Cl)cc1)c1ccccn1 (centres undefined)
2. CC(C)NCC(O)COc1cccc2[nH]ccc12 (centres undefined)
3. NCCc1cnc[nH]1
4. O=C1C(Cl)=C(Cl)C(=O)C(Cl)=C1Cl
5. CCn1cc(C(=O)O)c(=O)c2cc(F)c(N3CCNC(C)C3)c(F)c21 (centres undefined)

-- reply
1: 1.05; 2: 0.966; 3: 1; 4: 0.168; 5: 0.979

Hi, could you look up normalized growth for each item in my list?
1. O=C(c1c(F)cccc1F)N1CCN(C(=O)c2c(F)cccc2F)CC1
2. COc1ccc(CN(CCN(C)C)c2ccccn2)cc1

-- reply
1.06
0.992
